# tested.target: human GABAA α2β2γ1 receptor (Homo sapiens (Human), UniProt P47869+Q8N1C3)
# measurement.protocol: Radioligand binding assay for γ1-containing GABAA subtypes, [3H]RO7239181 competition (α2β2γ1)
# measurement.context: Ki h-GABAA α2β2γ1, Table 3, reference compounds
Listing: Ki of selected molecules
Report the figure along with its unit, number first.

Consider the worked cases shown below.
INSERT INTO measurements (molecule, assay_readout, readout_value) VALUES
  ('[2H]C([2H])([2H])N(C(=O)c1nc2n(n1)-c1ccc(Cl)c(Cl)c1C(c1c(F)cccc1F)=N[C@H]2C)C([2H])([2H])[2H] [Example 19]', 'Ki', '32.5 nM'),
  ('CCOC(=O)c1nc2n(n1)-c1ccc(Cl)cc1C(c1ccccc1F)=NC2 [RE-B, reference compound]', 'Ki', '18.4 nM'),
  ('CN(C)C(=O)c1nc2n(n1)-c1ccc(Cl)c(Cl)c1C(c1c(F)cccc1F)=NC2 [Example 9]', 'Ki', '5.5 nM');

Check the records and state Ki for CN(C)C(=O)c1nc2n(n1)-c1ccc(Cl)cc1C(c1ccccc1F)=NC2 [RE-A, reference compound]
276 nM

====

# tested.target: human GABAA α1β3γ2 receptor (Homo sapiens (Human), UniProt P14867+P18507)
# measurement.protocol: Radioligand binding assay for γ2-containing GABAA subtypes, [3H]Flumazenil competition (α1β3γ2)
# measurement.context: Ki α1β3γ2 (nM)/Ki α2β2γ1 (nM)
# Protocol: The affinity of compounds at GABAA γ2 subunit-containing receptors was measured by competition for [^3H]Flumazenil (81.1 Ci/mmol; Roche) binding to HEK293F cells expressing human (transiently transfected) receptors of composition α1β3γ2. Harvested pellets from HEK293F cells expressing the different GABAA γ2 receptor subtypes were resuspended in Mannitol Buffer pH 7.2-7.4 and processed as described above for the cells expressing the GABAA γ1 subunit-containing receptors. […]
Label Met when γ2/γ1 Selectivity Ratio is at or above 90; otherwise label Not met.

INSERT INTO assay_data (compound, tested_target, label_class) VALUES
  ('CCOC1CN(C(=O)c2nc3n(n2)-c2ccc(Cl)c(Cl)c2C(c2ncccc2F)=N[C@H]3C)C1 [Example 86]', 'human GABAA α1β3γ2 receptor (Homo sapiens (Human), UniProt P14867+P18507)', 'Not met'),
  ('COC1CN(C(=O)c2nc3n(n2)-c2ccc(Cl)c(Cl)c2C(c2c(F)cccc2F)=NC3)C1 [Example 11]', 'human GABAA α1β3γ2 receptor (Homo sapiens (Human), UniProt P14867+P18507)', 'Met'),
  ('C[C@@H]1N=C(c2ncccc2F)c2c(ccc(Cl)c2Cl)-n2nc(C(=O)NC3CC3)nc21 [Example 88]', 'human GABAA α1β3γ2 receptor (Homo sapiens (Human), UniProt P14867+P18507)', 'Not met');

Then this compound:
Entry O=C(c1nc2n(n1)-c1ccc(Cl)c(Cl)c1C(c1c(F)cccc1F)=NC2)N1CCC1 [Example 8] : is its γ2/γ1 Selectivity Ratio no less than 90?
Not met

====

# tested.target: human GABAA α5β2γ1 receptor (Homo sapiens (Human), UniProt P31644+Q8N1C3)
# measurement.protocol: Radioligand binding assay for γ1-containing GABAA subtypes, [3H]RO7239181 competition (α5β2γ1)
Listing: pKi of selected compounds
Keep it numeric: pKi is minus log10 of the concentration in mol/L.

INSERT INTO measurements (substance_smiles, assay_readout, readout_value) VALUES
  ('COC1CN(C(=O)c2cn3c(n2)CN=C(c2c(F)cccc2F)c2c-3ccc(Cl)c2Cl)C1', 'pKi', 8.90),
  ('C[C@@H]1N=C(c2ncccc2F)c2c(ccc(C(F)(F)F)c2Cl)-n2nc(NC(=O)NC3CC3)nc21', 'pKi', 8.13),
  ('COCCNC(=O)c1nc2n(n1)-c1ccc(Cl)c(Cl)c1C(c1c(F)cccc1F)=N[C@H]2C', 'pKi', 8.97),
  ('C[C@@H]1N=C(c2c(F)cccc2F)c2c(ccc(C(F)(F)F)c2Cl)-n2ncnc21', 'pKi', 8.99),
  ('C[C@@H]1N=C(c2c(F)cccc2F)c2c(ccc(Cl)c2Cl)-n2nc(NC(=O)N3CC(F)C3)nc21', 'pKi', 8.74),
  ('[2H]C([2H])([2H])N(C(=O)c1nc2n(n1)-c1ccc(Cl)c(Cl)c1C(c1c(F)cccc1F)=N[C@H]2C)C([2H])([2H])[2H]', 'pKi', 8.70);

Switching to the query record.
Check the records and state pKi for C[C@@H]1N=C(c2c(F)cccc2F)c2c(ccc(Cl)c2Cl)-n2nc(N3CC(C#N)C3)nc21
9.00

Origin of the recorded values: patent US12365687B2
